System: T cells cultured from PBMC from healthy donors
Assay: T cell induction by PRAME-based SLPs, IFNy ELISpot (test 1 and test 2)
Design: species or system human; key: − (negative); + (positive); When at least one donor had a positive response, this is denoted as POS
Conditions: donor BC298, Test 2; 2 peptide pools
Ends that are not written are not given here.
Readout Type: ELISPOT IFNy

INSERT INTO assay_data (item_sequence, assay_target, result) VALUES
  ('LPSLSHCSQLTTLSFYGNSISISALQSLLQHLIGL (LPSLSHC(cysteinyl)SQLTTLSFYGNSISISALQSLLQHLIGL; listed as Homo sapiens) [SEQ ID NO: 44, PRAME-based SLP, cysteinylated form tested]', 'T cells cultured from PBMC from healthy donors', '+'),
  ('VWTSPRRLVELAGQSLLKDEALAIAALELLPRELF (listed as Homo sapiens) [SEQ ID NO: 42, PRAME-based SLP]', 'T cells cultured from PBMC from healthy donors', '+'),
  ('VLYPVPLESYEDIHGTLHLERLAYLHARLREL (listed as Homo sapiens) [SEQ ID NO: 41, PRAME-based SLP]', 'T cells cultured from PBMC from healthy donors', '−'),
  ('LLPRELFPPLFMAAFDGRHSQTLKAMVQAWPF (listed as Homo sapiens) [SEQ ID NO: 43, PRAME-based SLP]', 'T cells cultured from PBMC from healthy donors', '−'),
  ('PTLAKFSPYLGQMINLRRLLLSHIHASSYISPE (listed as Homo sapiens) [SEQ ID NO: 37, PRAME-based SLP]', 'T cells cultured from PBMC from healthy donors', '−');

Data request: Field: ELISPOT IFNy (T cells cultured from PBMC from healthy donors). Entry: LETFKAVLDGLDVLLAQEVRPRRWKLQVLDLRK (listed as Homo sapiens) [SEQ ID NO: 45, PRAME-based SLP of WO2008118017, reference compound]
Data returned: −

----------
Recorded Purity (% a/a) values for a group of sequences are listed next.
Experiment: Stability of cysteine and cystine-containing peptides in 20% v/v DMSO in WFI (UPLC-UV-MS purity)
Type: physicochemical
Conditions: Time 4 h, room temperature
Ends that are not written are not given here.
Lab note: write values as number then unit, every time.

INSERT INTO results (item_sequence, result) VALUES
  ('HLSLRGLPVCAFSSAGPCALRFTSA [Cystine(C(C)) containing SEQ ID NO: 1]', '95.74 % a/a');

Data request: What value of Purity (% a/a) has been recorded for this entry: AARLCCQLDPARDVLCLRPVGAESR [Cystine(C(C)) containing SEQ ID NO: 4]
Data returned: 92.89 % a/a

Data request: For the sequence shown here, AARLCCQLDPARDVLCLRPVGAESR [Cysteine (C) containing SEQ ID NO: 4, reference compound] , give the reported Purity (% a/a).
Data returned: 72.13 % a/a

Data request: So what's the measured Purity (% a/a) for this one? HLSLRGLPVCAFSSAGPCALRFTSA [Cysteine (C) containing SEQ ID NO: 1, reference compound]
Data returned: 64.12 % a/a

Data request: Reported Purity (% a/a), sequence VLSRKYTSFPWLLGCTANWILRGTSFVYVPSALNPA [Cystine(C(C)) containing SEQ ID NO: 3] (VLSRKYTSFPWLLGC(Cys)TANWILRGTSFVYVPSALNPA) [HBV Pol fragment SLP with cysteinylated cysteine] : ____
Data returned: 97.34 % a/a

Data request: Name the recorded Purity (% a/a) for VLSRKYTSFPWLLGCTANWILRGTSFVYVPSALNPA [Cysteine (C) containing SEQ ID NO: 3, HBV Pol fragment, unmodified cysteine comparator, reference compound] .
Data returned: 79.81 % a/a

----------
System: T cells cultured from PBMC from healthy donors
Assay: T cell induction by PRAME-based SLPs, IFNy ELISpot (test 1 and test 2)
Parameters: species or system human; key: − (negative); + (positive); When at least one donor had a positive response, this is denoted as POS
Settings: donor BC298, Test 2; 2 peptide pools
Ends that are not written are not given here.
Readout Type: ELISPOT IFNy

INSERT INTO assay_data (item_sequence, assay_target, readout_type, result) VALUES
  ('VLSLSGVMLTDVSPEPLQALLERASATLQDLVFDE (listed as Homo sapiens) [SEQ ID NO: 50, PRAME-based SLP of WO2008118017, reference compound]', 'T cells cultured from PBMC from healthy donors', 'ELISPOT IFNy', '−'),
  ('KEGACDELFSYLIEKVKRKKNVLRL (KEGAC(cysteinyl)DELFSYLIEKVKRKKNVLRL; listed as Homo sapiens) [SEQ ID NO: 39, PRAME-based SLP, cysteinylated form tested]', 'T cells cultured from PBMC from healthy donors', 'ELISPOT IFNy', '−'),
  ('LKAMVQAWPFTCLPLGVLMKGQHLHLETFKAVL (LKAMVQAWPFTC(cysteinyl)LPLGVLMKGQHLHLETFKAVL; listed as Homo sapiens) [SEQ ID NO: 38, PRAME-based SLP, cysteinylated form tested]', 'T cells cultured from PBMC from healthy donors', 'ELISPOT IFNy', '+'),
  ('ALYVDSLFFLRGRLDQLLRHVMNPLETLSITNCRL (ALYVDSLFFLRGRLDQLLRHVMNPLETLSITNC(cysteinyl)RL; listed as Homo sapiens) [SEQ ID NO: 40, PRAME-based SLP, cysteinylated form tested]', 'T cells cultured from PBMC from healthy donors', 'ELISPOT IFNy', '−');

----------
Experiment: Stability of cysteine and cystine-containing peptides in 20% v/v DMSO in WFI (UPLC-UV-MS purity)
Format: physicochemical
Conditions: Time 2 h, room temperature
Ends that are not written are not given here.
Readout Type: Purity (% a/a)
Give the quantity in % a/a, number only.

INSERT INTO measurements (item_sequence, quantitative_result) VALUES
  ('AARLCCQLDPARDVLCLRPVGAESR [Cystine(C(C)) containing SEQ ID NO: 4]', 93.58),
  ('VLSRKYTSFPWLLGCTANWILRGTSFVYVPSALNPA [Cysteine (C) containing SEQ ID NO: 3, HBV Pol fragment, unmodified cysteine comparator, reference compound]', 87.94),
  ('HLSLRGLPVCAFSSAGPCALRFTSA [Cystine(C(C)) containing SEQ ID NO: 1]', 95.10),
  ('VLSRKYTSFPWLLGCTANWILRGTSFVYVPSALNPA [Cystine(C(C)) containing SEQ ID NO: 3] (VLSRKYTSFPWLLGC(Cys)TANWILRGTSFVYVPSALNPA) [HBV Pol fragment SLP with cysteinylated cysteine]', 97.28),
  ('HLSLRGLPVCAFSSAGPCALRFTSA [Cysteine (C) containing SEQ ID NO: 1, reference compound]', 78.20);

Let's switch to this sequence now.
Data request: Consider the sequence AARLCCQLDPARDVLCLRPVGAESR [Cysteine (C) containing SEQ ID NO: 4, reference compound] and give its measured Purity (% a/a).
Data returned: 83.13

----------
Assay: Stability of cysteine and cystine-containing peptides in 20% v/v DMSO in WFI (UPLC-UV-MS purity)
Type: physicochemical
Details: Time 3 h, room temperature
Ends that are not written are not given here.
Label f if Purity (% a/a) falls below 80 % a/a; label t in every other case.

// known answers, use as guide
INSERT INTO measurements (item_sequence, label_class) VALUES
  ('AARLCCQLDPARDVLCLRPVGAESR [Cystine(C(C)) containing SEQ ID NO: 4]', 't'),
  ('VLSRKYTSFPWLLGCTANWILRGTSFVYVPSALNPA [Cysteine (C) containing SEQ ID NO: 3, HBV Pol fragment, unmodified cysteine comparator, reference compound]', 't'),
  ('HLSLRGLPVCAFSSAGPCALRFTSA [Cysteine (C) containing SEQ ID NO: 1, reference compound]', 'f'),
  ('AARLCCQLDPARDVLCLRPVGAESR [Cysteine (C) containing SEQ ID NO: 4, reference compound]', 'f'),
  ('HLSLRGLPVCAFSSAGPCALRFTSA [Cystine(C(C)) containing SEQ ID NO: 1]', 't');

Next:
Data request: Decide: is the reported value of Purity (% a/a) for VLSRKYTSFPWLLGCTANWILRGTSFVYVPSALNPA [Cystine(C(C)) containing SEQ ID NO: 3] (VLSRKYTSFPWLLGC(Cys)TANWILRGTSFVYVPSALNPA) [HBV Pol fragment SLP with cysteinylated cysteine] equal to or greater than 80 % a/a?
Data returned: t

----------
Experiment: Stability of peptide mixtures under long term and accelerated storage (UPLC)
Format: physicochemical
Settings: peptide in mixture of 6 peptides; Storage at 5 ± 3° C., T3M
Ends that are not written are not given here.
Readout Type: Assay (net peptide content) (mg/vial)

Data request: Value lookup for Assay (net peptide content) (mg/vial); key = VVNHYFQTRHYLHTLWKAGILYKRETTRSASFCGSPYSW (VVNHYFQTRHYLHTLWKAGILYKRETTRSASFC(Cys)GSPYSW) [SEQ ID 5, HBV Pol fragment SLP with cysteinylated cysteine]
Data returned: 0.22 mg/vial
